Data origin: the supplement of paper PMC10567573

B1: LOXL2 (parent)
chain: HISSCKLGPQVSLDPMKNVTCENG

Variants of: B1
PROTOCOL NOTES: protein stability index of a GFP-peptide fusion (GPS, HEK-293T) (PSI 1-6); higher = more stable;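 also: lentivirally expressed fusions sorted by FACS into six bins by GFP to DsRed ratio, PSI derived from sequencing read proportions per bin multiplied by bin number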
APPLIED CONDITIONS: c terminus: a fixed tail appended
Is protein stability index at least 4? Then Fulfilled. If not, Not fulfilled.

QUERY: State whether the measured protein stability index reaches 4, counting equality as reaching it, for "K17D"
RESULT: Fulfilled

QUERY: State whether the measured protein stability index reaches 4, counting equality as reaching it, for "M16L"
RESULT: Not fulfilled

QUERY: State whether the measured protein stability index reaches 4, counting equality as reaching it, for "S4N"
RESULT: Not fulfilled

QUERY: State whether the measured protein stability index reaches 4, counting equality as reaching it, for "M16A"
RESULT: Fulfilled

QUERY: State whether the measured protein stability index reaches 4, counting equality as reaching it, for "N23E"
RESULT: Fulfilled

QUERY: State whether the measured protein stability index reaches 4, counting equality as reaching it, for "C21I"
RESULT: Not fulfilled

QUERY: State whether the measured protein stability index reaches 4, counting equality as reaching it, for "C21M"
RESULT: Not fulfilled

QUERY: State whether the measured protein stability index reaches 4, counting equality as reaching it, for "M16G"
RESULT: Fulfilled

QUERY: State whether the measured protein stability index reaches 4, counting equality as reaching it, for "K6P"
RESULT: Fulfilled

QUERY: State whether the measured protein stability index reaches 4, counting equality as reaching it, for "C21F"
RESULT: Not fulfilled

QUERY: State whether the measured protein stability index reaches 4, counting equality as reaching it, for "N23D"
RESULT: Fulfilled

QUERY: State whether the measured protein stability index reaches 4, counting equality as reaching it, for "S3H"
RESULT: Not fulfilled

QUERY: State whether the measured protein stability index reaches 4, counting equality as reaching it, for "L7Y"
RESULT: Not fulfilled

QUERY: State whether the measured protein stability index reaches 4, counting equality as reaching it, for "L13M"
RESULT: Fulfilled

QUERY: State whether the measured protein stability index reaches 4, counting equality as reaching it, for "T20L"
RESULT: Fulfilled

QUERY: State whether the measured protein stability index reaches 4, counting equality as reaching it, for "G24C"
RESULT: Not fulfilled

QUERY: State whether the measured protein stability index reaches 4, counting equality as reaching it, for "E22N"
RESULT: Not fulfilled

QUERY: State whether the measured protein stability index reaches 4, counting equality as reaching it, for "V11N"
RESULT: Fulfilled

QUERY: State whether the measured protein stability index reaches 4, counting equality as reaching it, for "S4I"
RESULT: Not fulfilled

QUERY: State whether the measured protein stability index reaches 4, counting equality as reaching it, for "L13N"
RESULT: Fulfilled

QUERY: State whether the measured protein stability index reaches 4, counting equality as reaching it, for "P15M"
RESULT: Not fulfilled

QUERY: State whether the measured protein stability index reaches 4, counting equality as reaching it, for "G8T"
RESULT: Fulfilled

QUERY: State whether the measured protein stability index reaches 4, counting equality as reaching it, for "G8K"
RESULT: Not fulfilled
